Form field: log10 Km pH 8.6 (mM) (one value per entry).
ASSAYED_TARGET: T1, succinyl-L-Ala-L-Ala-L-Pro-L-Phe-p-nitroanilide (SEQ ID NO: 1)
T1 chain: AAPF
Recall that a logarithmic scale is used here: each number is log10 of Km pH 8.6 (mM) in mM.

Take a look at these entries with their results.
PROTEIN	log10 Km pH 8.6 (mM)
wild-type subtilisin of Bacillus lentus (SEQ ID NO: 2) (protein) AQSVPWGISRVQAPAAHNRGLTGSGVKVAVLDTGISTHPDLNIRGGASFVPGEPSTQDGNGHGTHVAGTIAALNNSIGVLGVAPSAELYAVKVLGASGSGSVSSIAQGLEWAGNNGMHVANLSLGSPSPSATLEQAVNSATSRGVLVVAASGNSGAGSISYPARYANAMAVGATDQNNNRASFSQYGAGLDIVAPGVNVQSTYPGSTYASLNGTSMATPHVAGAAALVKQKNPSWSNVQIRNHLKNTATSLGSTNLYGSGLVNAEAATR	-0.20
N74D/S99G/V102W/S126G/N198A/N212S/T254P (variant of sequence SEQ ID NO: 5) (protein) AQSVPWGISRVQAPAAHNRGLTGSGVKVAVLDTGISTHPDLNIRGGASFVPGEPSTQDGNGHGTHVAGTIAALDNSIGVLGVAPSAELYAVKVLGASGGGSWSSIAQGLEWAGNNGMHVANLSLGGPSPSATLEQAVNSATSRGVLVVAASGNSGAGSISYPARYANAMAVGATDQNNNRASFSQYGAGLDIVAPGVAVQSTYPGSTYASLSGTSMATPHVAGAAALVKQKNPSWSNVQIRNHLKNTATSLGSPNLYGSGLVNAEAATR	-1.30
N74D/S99G/V102W/S126G/D191E/N198G/N212S/T254P (variant of sequence SEQ ID NO: 4) (protein) AQSVPWGISRVQAPAAHNRGLTGSGVKVAVLDTGISTHPDLNIRGGASFVPGEPSTQDGNGHGTHVAGTIAALDNSIGVLGVAPSAELYAVKVLGASGGGSWSSIAQGLEWAGNNGMHVANLSLGGPSPSATLEQAVNSATSRGVLVVAASGNSGAGSISYPARYANAMAVGATDQNNNRASFSQYGAGLEIVAPGVGVQSTYPGSTYASLSGTSMATPHVAGAAALVKQKNPSWSNVQIRNHLKNTATSLGSPNLYGSGLVNAEAATR	-0.96
N74D/S101A/V102W (control variant of WO1995010591; sequence SEQ ID NO: 3) (protein) AQSVPWGISRVQAPAAHNRGLTGSGVKVAVLDTGISTHPDLNIRGGASFVPGEPSTQDGNGHGTHVAGTIAALDNSIGVLGVAPSAELYAVKVLGASGSGAWSSIAQGLEWAGNNGMHVANLSLGSPSPSATLEQAVNSATSRGVLVVAASGNSGAGSISYPARYANAMAVGATDQNNNRASFSQYGAGLDIVAPGVNVQSTYPGSTYASLNGTSMATPHVAGAAALVKQKNPSWSNVQIRNHLKNTATSLGSTNLYGSGLVNAEAATR	-0.54

Okay, now this protein:
[in] Entry N74D/S97D/S126G/P204I/T254P/S259N (variant of sequence SEQ ID NO: 6) (protein) AQSVPWGISRVQAPAAHNRGLTGSGVKVAVLDTGISTHPDLNIRGGASFVPGEPSTQDGNGHGTHVAGTIAALDNSIGVLGVAPSAELYAVKVLGADGSGSVSSIAQGLEWAGNNGMHVANLSLGGPSPSATLEQAVNSATSRGVLVVAASGNSGAGSISYPARYANAMAVGATDQNNNRASFSQYGAGLDIVAPGVNVQSTYIGSTYASLNGTSMATPHVAGAAALVKQKNPSWSNVQIRNHLKNTATSLGSPNLYGNGLVNAEAATR has what log10 Km pH 8.6 (mM)?
[out] -0.18
